molecular target: USP19 (Homo sapiens (Human), UniProt O94966)
Sequence (O94966 whole entry): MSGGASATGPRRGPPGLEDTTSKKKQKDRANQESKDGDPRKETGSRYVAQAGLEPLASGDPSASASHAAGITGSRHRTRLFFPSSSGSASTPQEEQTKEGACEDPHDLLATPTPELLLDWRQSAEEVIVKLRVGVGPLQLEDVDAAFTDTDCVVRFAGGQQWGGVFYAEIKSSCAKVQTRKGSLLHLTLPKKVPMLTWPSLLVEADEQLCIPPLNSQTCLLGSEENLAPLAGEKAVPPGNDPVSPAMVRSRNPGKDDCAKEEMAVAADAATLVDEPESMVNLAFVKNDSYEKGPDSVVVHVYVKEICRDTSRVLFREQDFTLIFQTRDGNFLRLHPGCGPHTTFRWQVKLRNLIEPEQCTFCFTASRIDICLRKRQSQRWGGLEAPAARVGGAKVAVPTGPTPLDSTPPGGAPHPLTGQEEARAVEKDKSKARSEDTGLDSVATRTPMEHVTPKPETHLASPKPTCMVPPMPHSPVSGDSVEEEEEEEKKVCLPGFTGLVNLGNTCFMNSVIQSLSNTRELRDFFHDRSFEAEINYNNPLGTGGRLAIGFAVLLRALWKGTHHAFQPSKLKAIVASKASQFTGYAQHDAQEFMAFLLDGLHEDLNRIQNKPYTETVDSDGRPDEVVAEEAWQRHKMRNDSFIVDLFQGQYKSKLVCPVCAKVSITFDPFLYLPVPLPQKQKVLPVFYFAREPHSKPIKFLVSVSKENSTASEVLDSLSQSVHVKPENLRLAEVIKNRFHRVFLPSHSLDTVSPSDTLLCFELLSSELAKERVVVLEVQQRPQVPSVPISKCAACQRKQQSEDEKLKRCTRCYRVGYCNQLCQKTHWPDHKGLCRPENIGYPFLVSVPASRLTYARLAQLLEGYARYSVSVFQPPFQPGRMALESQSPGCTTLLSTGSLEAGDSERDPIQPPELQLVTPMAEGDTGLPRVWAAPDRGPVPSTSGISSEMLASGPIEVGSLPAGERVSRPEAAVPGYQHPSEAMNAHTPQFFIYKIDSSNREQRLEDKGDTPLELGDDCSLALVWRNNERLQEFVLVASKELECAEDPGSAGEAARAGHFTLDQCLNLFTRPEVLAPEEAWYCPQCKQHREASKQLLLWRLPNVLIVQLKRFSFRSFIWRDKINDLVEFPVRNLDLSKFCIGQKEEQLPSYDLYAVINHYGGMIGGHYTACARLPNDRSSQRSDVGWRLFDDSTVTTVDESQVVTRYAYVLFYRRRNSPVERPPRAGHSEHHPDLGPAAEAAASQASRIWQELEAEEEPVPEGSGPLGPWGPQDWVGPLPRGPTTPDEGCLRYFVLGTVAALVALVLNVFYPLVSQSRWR
Kindly state IC50 for each of the entries shown.

Worked examples, 2 compounds total:
• CN(C)C(=O)c1cn(CC2(O)CCN(C(=O)C[C@H](c3ccccc3)C(F)F)CC23CCCC3)c(=O)cc1-c1ccccc1 (stereo partly drawn) [Example 181] = 500 to 5000 nM
• C[C@H](CC(F)(F)F)C(=O)N1CC[C@@](O)(Cn2cc(C(=O)N(C)C)c(-c3ccccc3F)cc2=O)C2(CCCC2)C1 [Example 223] = 500 to 5000 nM

Now for the compound whose IC50 we want.
Query string: Any idea what IC50 was measured for CC(C)N(C)C(=O)c1cn(C[C@]2(O)CCN(C(=O)[C@H](C)CC3CCCCC3)CC2(C)C)c(=O)cc1-c1ccccc1 [Example 120] ?
Result string: < 500 nM

---

The reader will find IC50 measurements below, all made with USP19 (Homo sapiens (Human)).

Previously resolved entries follow.
• O=C(CCC1CCC1)N1CCC(O)(Cn2cnc(-c3ccccc3F)cc2=O)CC1 = 50 to 250 µM
• CC(C)N(C)C(=O)c1cn(CC2(O)CCN(C(=O)C[C@@H](C)c3ccccc3)CC2)c(=O)cc1-c1ccccc1C#N = 50 to 250 µM
• C[C@H](CC1CCCCC1)C(=O)N1CCC(O)(Cn2cnc(-c3ccc(CO)cc3)cc2=O)C(C)(C)C1 (stereo partly shown) = < 0.5 µM
• CC(C)(CC(=O)N1CCC(O)(Cn2cnc(-c3ccccc3F)cc2=O)C(C)(C)C1)c1ccccc1 (racemic) = 5 to 50 µM
• C[C@H](CC(=O)N1CCC(O)(Cn2cnc(C3=CCCCC3)cc2=O)CC1)c1ccccc1 = 50 to 250 µM

Please give IC50, item by item, for the list that follows.
1. CC1(C)CN(C(=O)c2c[nH]nc2C2CCCCC2)CCC1(O)Cn1cnc(-c2ccccc2F)cc1=O (racemic)
2. C[C@H](CC1CCCCC1)C(=O)N1CC[C@@](O)(Cn2cc(C(=O)N3CCNCC3)c(-c3ccccc3F)cc2=O)C(C)(C)C1
3. C[C@H](CC(=O)N1CCC(O)(Cn2cc(-c3cnn(C)c3)c(-c3ccccc3)cc2=O)CC1)c1ccccc1
4. CC(C)N(C)C(=O)c1cn(CC2(O)CCN(C(=O)C[C@@H](C)c3ccccc3)CC2)c(=O)cc1-c1ccccc1F
5. CCOC(=O)c1cn(CC2(O)CCN(C(=O)C[C@@H](C)c3ccccc3)CC2)c(=O)cc1-c1ccccc1
6. C[C@H](CC(=O)N1CCC(O)(Cn2cc(C(=O)N3CCC[C@@H]3C)c(-c3ccccc3)cc2=O)CC1)c1ccccc1

Result string:
1. 5 to 50 µM
2. < 0.5 µM
3. 50 to 250 µM
4. 0.5 to 5 µM
5. 50 to 250 µM
6. 0.5 to 5 µM

Please state IC50 for every compound in the list that follows.
1. O=C(c1cn(C[C@]2(O)CCN(C(=O)C(CC(F)(F)F)CC(F)(F)F)CC23CCCC3)c(=O)cc1-c1ccccc1)N1CCNCC1
2. CC(Cn1cccn1)C(=O)N1CCC(O)(Cn2cnc(-c3ccccc3F)cc2=O)C(C)(C)C1 (stereo not shown)
3. C[C@H](CC(=O)N1CCC(O)(Cn2cnc(-c3ccco3)cc2=O)CC1)c1ccccc1
4. C[C@H](CC(=O)N1CCC(O)(Cn2cc(-c3cccc(CN)c3)c(-c3ccccc3)cc2=O)CC1)c1ccccc1
5. CN(C)C(=O)c1cn(CC2(O)CCN(C(=O)[C@@H]3C[C@@H]3c3ccccc3)CC23CCCC3)c(=O)cc1-c1ccccc1 (stereo partly shown)
6. C[C@H](CC1CCCCC1)C(=O)N1CCC(O)(Cn2cc(C(=O)N(C)C)c(-c3cccc(CO)c3)cc2=O)C2(CCCC2)C1 (stereo partly shown)
7. COC[C@H](CC1CCCCC1)C(=O)N1CC[C@@](O)(Cn2cc(C(=O)N(C)C)c(-c3ccccc3)cc2=O)C(C)(C)C1
8. O=C(C(O)CC1CCCCC1)N1CCC(O)(Cn2cnc(-c3ccccc3F)cc2=O)CC1 (racemic)

Result string:
1. 0.5 to 5 µM
2. 50 to 250 µM
3. 50 to 250 µM
4. 5 to 50 µM
5. < 0.5 µM
6. < 0.5 µM
7. < 0.5 µM
8. 5 to 50 µM

Go through the list and state IC50 for each entry.
1. C[C@H](CC(F)(F)F)C(=O)N1CC[C@@](O)(Cn2cc(C(=O)N3CCNCC3)c(-c3ccccc3)cc2=O)C2(CCCC2)C1
2. C[C@H](CC1CCCCC1)C(=O)N1CCC(O)(Cn2cc(C(=O)N3CCCCC3)c(-c3ccccc3)cc2=O)CC1
3. O=C(CCC1CCCCC1)N1C[C@H]2CC[C@@H](C1)C2(O)Cn1cnc(-c2ccccc2F)cc1=O (stereo partly shown)
4. CC(CC1CCC1)C(=O)N1CCC(O)(Cn2cnc(-c3ccccc3F)cc2=O)CC1 (racemic)
5. C[C@H](CC(=O)N1CCC(O)(Cn2cc(-c3ccnn3C)c(-c3ccccc3)cc2=O)CC1)c1ccccc1
6. C[C@H](CC(=O)N1CCC(O)(Cn2cc(-c3ccccn3)c(-c3ccccc3)cc2=O)CC1)c1ccccc1

Result string:
< 0.5 µM
0.5 to 5 µM
50 to 250 µM
5 to 50 µM
5 to 50 µM
0.5 to 5 µM

---

# USP19 (Homo sapiens (Human)): IC50 values follow

• CCC1(C(=O)N2CCC(O)(Cn3cnc(-c4ccccc4F)cc3=O)CC2)CCCCC1 = 5 to 50 µM

Look up IC50 for the entries below, preserving their order.
1. O=C([C@@H]1C[C@@H]1c1ccccc1)N1CCC(O)(Cn2cnc(-c3ccccc3F)cc2=O)CC1 (racemic)
2. CN(C)C(=O)c1cn(CC2(O)CCN(C(=O)c3n[nH]c4ccccc34)CC23CCCC3)c(=O)cc1-c1ccccc1 (stereo not shown)
3. Cc1c(-c2cc(=O)n(CC3(O)CCN(C(=O)C[C@@H](C)c4ccccc4)CC3)cn2)cnn1C

Result string:
1. 5 to 50 µM
2. 50 to 250 µM
3. 50 to 250 µM

---

Please consider the recorded IC50 for USP19 (Homo sapiens (Human), UniProt O94966) in what follows.

Solved cases (6 shown):
- CN(C)C(=O)c1cn(CC2(O)CCN(C(=O)C3(CC(F)F)CC3)CC23CCCC3)c(=O)cc1-c1ccccc1 (stereo not shown): 50 to 250 µM
- C[C@H](CC(=O)N1CCC(O)(Cn2cc(C(=O)NCC3CC3)c(-c3ccccc3)cc2=O)CC1)c1ccccc1: 5 to 50 µM
- C[C@H](CC(=O)N1CCC(O)(Cn2cc(C(=O)N(C)C)c(-c3ccccc3)cc2=O)C2(CCCC2)C1)c1ccccc1 (stereo partly shown): 0.5 to 5 µM
- CC(C)C(CC1CCCCC1)C(=O)N1CCC(O)(Cn2cnc(-c3ccccc3F)cc2=O)C(C)(C)C1 (stereo not shown): 0.5 to 5 µM
- CC(CC(F)F)C(=O)N1CCC(O)(Cn2cc(C(=O)N(C)C)c(-c3ccccc3)cc2=O)C2(CCCC2)C1 (stereo not shown): 5 to 50 µM
- C[C@H](CC(=O)N1CCC(O)(Cn2cnc(-c3ccccc3OC(F)(F)F)cc2=O)CC1)c1ccccc1: 50 to 250 µM

Would you be so kind as to report IC50 for each listed record?
1. C[C@H](CC(F)(F)F)C(=O)N1CC[C@@](O)(Cn2cc(C(=O)N(C)C)c(-c3ccccc3)cc2=O)C(C)(C)C1
2. C[C@H](CC1CCCCC1)C(=O)N1CCC(O)(Cn2cc(C(=O)N(C)C)ccc2=O)C2(CCCC2)C1 (stereo partly shown)
3. C[C@H](CC(=O)N1CCC(O)(Cn2cnc(-c3ccccc3F)cc2=O)CC1)c1ccccc1
4. C[C@H](CC1CCCCC1)C(=O)N1CC[C@](O)(Cn2cc(C(=O)N3CCNCC3)c(-c3ccccc3)cc2=O)C2(CCCC2)C1
5. C[C@H](CC1CCCCC1)C(=O)N1CC[C@@](O)(Cn2cc(C(=O)N(C)C)c(C3CC3)cc2=O)C2(CCCC2)C1
6. O=C(CCc1ccc(F)cc1)N1CCC(O)(Cn2cnc(-c3ccccc3F)cc2=O)CC1
7. CCC(C)(C)C(=O)N1CCC(O)(Cn2cc(C(=O)N(C)C(C)C)c(-c3ccccc3)cc2=O)CC1
8. C[C@H](CC(=O)N1CCC(O)(Cn2nc(-c3ccccc3)c(-c3ccccc3)cc2=O)CC1)c1ccccc1

Result string:
0.5 to 5 µM
0.5 to 5 µM
5 to 50 µM
5 to 50 µM
< 0.5 µM
50 to 250 µM
50 to 250 µM
5 to 50 µM

---

Measured pIC50 (USP19 (Homo sapiens (Human)))
pIC50: −log10 of the molar value.

Previously resolved entries follow.
- CN(C)C(=O)c1cn(CC2(O)CCN(C(=O)C34CC(C3)C4)CC23CCCC3)c(=O)cc1-c1ccccc1 (centres unmarked) [Example 191]: 3.60 to 4.30
- CC(CN1CCOCC1)C(=O)N1CCC(O)(Cn2cc(C(=O)N(C)C)c(-c3ccccc3)cc2=O)C2(CCCC2)C1 (centres unmarked) [Example 163]: 4.30 to 5.30
- C[C@H](CC1CCCCC1)C(=O)N1CCC(O)(Cn2cnc(-c3cccc(CN)c3)cc2=O)C(C)(C)C1 (some centres unmarked) [Example 159]: 5.30 to 6.30
- CN(C)C(=O)c1cn(CC2(O)CCN(C(=O)COC3CCC3)CC23CCCC3)c(=O)cc1-c1ccccc1 (centres unmarked) [Example 201]: 4.30 to 5.30
- C[C@H](CC1CCC1)C(=O)N1CC[C@@](O)(Cn2cc(C(=O)N(C)C)c(-c3ccccc3F)cc2=O)C(C)(C)C1 [Example 235]: 5.30 to 6.30
- CC1(C)CN(C(=O)CCc2ccccc2)CCC1(O)Cn1cnc(-c2ccccc2F)cc1=O (racemic) [Example 68]: 4.30 to 5.30
- C[C@H](CC1CCCCC1)C(=O)N1CCC(O)(Cn2cc(C(=O)N(C)C)c(N(C)C)cc2=O)C2(CCCC2)C1 (some centres unmarked) [Example 145]: > 6.30
- C[C@H](CC1CCC1)C(=O)N1CC[C@@](O)(Cn2cc(C(=O)N3CCNCC3)c(-c3ccccc3F)cc2=O)C2(CCCC2)C1 [Example 224]: > 6.30

For each of the compounds below, state pIC50.
1. CN(C)C(=O)c1cn(C[C@]2(O)CCN(C(=O)[C@H](CO)CC3CCCCC3)CC2(C)C)c(=O)cc1-c1ccccc1 [Example 152]
2. CC(C)(CC1CCC1)C(=O)N1CCC(O)(Cn2cnc(-c3ccccc3F)cc2=O)CC1 [Example 59]
3. C[C@H](CC(=O)N1CCC(O)(Cn2cc(N3CCCC3=O)c(-c3ccccc3)cc2=O)CC1)c1ccccc1 [Example 55]
4. C[C@H](CC1CCCCC1)C(=O)N1CC[C@@](O)(Cn2cc(C(=O)N3CCNCC3)c(-c3ccccc3F)cc2=O)C2(CCCC2)C1 [Example 227]
5. C[C@H](CC1CCCCC1)C(=O)N1CCC(O)(Cn2cnc(-c3ccnn3C)cc2=O)C(C)(C)C1 (some centres unmarked) [Example 131]
6. C[C@H](CC1CCCCC1)C(=O)N1CCC(O)(Cn2cc(C(=O)N(C)C)c(-c3ccccc3)cc2=O)C2(CCOCC2)C1 (some centres unmarked) [Example 234]

Result string:
> 6.30
4.30 to 5.30
4.30 to 5.30
> 6.30
5.30 to 6.30
5.30 to 6.30
